Give measured pIC50 for each item. Keep answers brief.
Test system: Kuramochi cells labeled with mApple-H2B
Experiment: IncuCyte Cell Proliferation Assay
Format: cell-based
Settings: 72 h
pIC50: −log10 of the molar value.

For the molecule shown here, "COC[C@H]1CCCN(C(=O)[C@@H](NC(=O)[C@@H]2CN(C(=O)c3cncs3)CC23CN(C(=O)[C@H]2CC2(C)C)C3)[C@@H](C)OCc2cccc(F)c2)C1" , give the reported pIC50.
5.30 to 6.30

For the molecule shown here, CC(C)(O)C(NC(=O)[C@@H]1CN(C(=O)c2cncs2)CC12CN(C(=O)[C@H]1CC1(C)C)C2)c1cccc(C2CCOCC2)n1 (stereo partly drawn) , give the reported pIC50.
< 4.70

For the molecule shown here, CNC(=O)[C@@H](NC(=O)[C@@H]1CN(C(=O)c2cnn(Cc3ccccc3)c2)CC12CN(C(=O)[C@H]1CC1(C)C)C2)[C@@H](C)OCC(C)(C)C [I-130A] , give the reported pIC50.
4.70 to 5.30

For the molecule shown here, "CC1(C)C[C@@H]1C(=O)N1CC2(CN(C(=O)c3cnn(Cc4ccccc4)c3)C[C@H]2C(=O)NC[C@H]2CC[C@@H](C)CC2)C1" , give the reported pIC50.
5.30 to 6.30

For the molecule shown here, CNC(=O)[C@@H](NC(=O)[C@@H]1CN(C(=O)c2cncs2)CC12CN(C(=O)[C@H]1CC1(C)C)C2)[C@@H](C)OCC1CC2CCC1O2 (stereo partly drawn) , give the reported pIC50.
< 4.70

For the molecule shown here, "C[C@@H](OCC1CCCCC1)[C@@H](COCC1CCCCC1)NC(=O)[C@@H]1CN(C(=O)c2cncs2)CC12CN(C(=O)[C@H]1CC1(C)C)C2" , give the reported pIC50.
≥ 6.30

For the molecule shown here, CNC(=O)[C@@H](NC(=O)[C@@H]1CN(C(=O)c2cnn(Cc3ccccc3)c2)CC12CN(C(=O)[C@H]1CC1(C)C)C2)[C@@H](C)OCC1CCCCC1 [I-123A] , give the reported pIC50.
5.30 to 6.30

For the molecule shown here, CNC(=O)[C@@H](NC(=O)[C@@H]1CN(C(=O)c2cnn(Cc3ccccc3)c2)CC12CN(C(=O)C(C)C1CC1)C2)[C@@H](C)OCc1ccccc1 (stereo partly drawn) , give the reported pIC50.
< 4.70

For the molecule shown here, CNC(=O)C(NC(=O)[C@@H]1CN(C(=O)c2cncs2)CC12CN(C(=O)[C@H]1CC1(C)C)C2)c1ncc(C2CCCCC2)o1 (stereo partly drawn) , give the reported pIC50.
< 4.70

For the molecule shown here, CC(O[C@H](C)[C@@H](COC1CCC(F)(F)CC1)NC(=O)[C@@H]1CN(C(=O)c2cncs2)CC12CN(C(=O)[C@H]1CC1(F)F)C2)C1CCC(F)(F)CC1 (stereo partly drawn) , give the reported pIC50.
< 4.70

For the molecule shown here, "C[C@@H](OCC1(C(F)(F)F)CC1)[C@H](NC(=O)[C@H]1CN(C(=O)c2cncs2)CC12CN(C(=O)[C@H]1CC1(C)C)C2)C(=O)N1CCC(F)(F)CC1" , give the reported pIC50.
< 4.70

For the molecule shown here, "C[C@@H](OCc1ccccc1)[C@H](NC(=O)[C@@H]1CN(C(=O)c2cnn(Cc3ccccc3)c2)CC12CN(C(=O)[C@H]1CC1(C)C)C2)C(=O)N(C)C" , give the reported pIC50.
5.30 to 6.30
